# Tested on: Enterobacter sp. E8
Catalogue of MIC values
observed-property: MIC

INSERT INTO assay_data (compound, observed_property, endpoint_value) VALUES
  ('CCC1C(=O)N2C(C(=O)O)=C(Sc3ccncc3)CC12 (stereo not shown) [Table I-1 R1=H]', 'MIC', '0.46 µg/mL'),
  ('CC(C)C1C(=O)N2C(C(=O)O)=C(Sc3ccccn3)CC12 (stereo not shown) [Table I-2 R1=-CH3]', 'MIC', '25 µg/mL'),
  ('CCC1C(=O)N2C(C(=O)O)=C(Sc3ccccn3)CC12 (stereo not shown) [Table I-2 R1=H]', 'MIC', '12.5 µg/mL'),
  ('CC(C)C1C(=O)N2C(C(=O)O)=C(Sc3ccncc3)CC12 (stereo not shown) [Table I-1 R1=-CH3]', 'MIC', '1.56 µg/mL');

---

Form field: MIC (one value per entry).
# Test system: Escherichia coli K-12
observed-property: MIC (µg/mL)

INSERT INTO measurements (molecule, endpoint_value) VALUES
  ('CC(C)C1C(=O)N2C(C(=O)O)=C(Sc3ccncc3)CC12 (stereo not shown) [Table I-1 R1=-CH3]', 3.13),
  ('CCC1C(=O)N2C(C(=O)O)=C(Sc3ccccn3)CC12 (stereo not shown) [Table I-2 R1=H]', 6.25),
  ('CC(C)C1C(=O)N2C(C(=O)O)=C(Sc3ccccn3)CC12 (stereo not shown) [Table I-2 R1=-CH3]', 12.5),
  ('CCC1C(=O)N2C(C(=O)O)=C(Sc3ccncc3)CC12 (stereo not shown) [Table I-1 R1=H]', 0.92);

---

# System: Klebsiella pneumoniae K-13
observed-property: MIC (µg/mL)

INSERT INTO measurements (compound, endpoint_value) VALUES
  ('CCC1C(=O)N2C(C(=O)O)=C(Sc3ccccn3)CC12 (centres unmarked)', 25),
  ('CC(C)C1C(=O)N2C(C(=O)O)=C(Sc3ccncc3)CC12 (centres unmarked)', 25),
  ('CC(C)C1C(=O)N2C(C(=O)O)=C(Sc3ccccn3)CC12 (centres unmarked)', 50),
  ('CCC1C(=O)N2C(C(=O)O)=C(Sc3ccncc3)CC12 (centres unmarked)', 14.8),
  ('CC(O)[C@H]1C(=O)N2C(C(=O)O)=C(Sc3ccncc3)C[C@H]12 (relative stereo)', 25);

---

Reported MIC for target or system Sarcina lutea, by entry.
observed-property: MIC (ng/mL)

INSERT INTO results (compound, units_symbol, modifier, endpoint_value) VALUES
  ('CCC1C(=O)N2C(C(=O)O)=C(Sc3ccncc3)CC12 (stereo not shown)', 'ng/mL', '<', 7),
  ('CC(C)C1C(=O)N2C(C(=O)O)=C(Sc3ccccn3)CC12 (stereo not shown)', 'ng/mL', '=', 4),
  ('CC(C)C1C(=O)N2C(C(=O)O)=C(Sc3ccncc3)CC12 (stereo not shown)', 'ng/mL', '=', 13),
  ('CCC1C(=O)N2C(C(=O)O)=C(Sc3ccccn3)CC12 (stereo not shown)', 'ng/mL', '=', 0.8);

---

The listing below reports MIC for molecules tested on Staphylococcus aureus FDA 209P.
observed-property: MIC (ng/mL)

INSERT INTO assay_data (molecule, measured_on, modifier, endpoint_value) VALUES
  ('CC(C)C1C(=O)N2C(C(=O)O)=C(Sc3ccncc3)CC12 (stereo not shown)', 'Staphylococcus aureus FDA 209P', '=', 7),
  ('CCC1C(=O)N2C(C(=O)O)=C(Sc3ccccn3)CC12 (stereo not shown)', 'Staphylococcus aureus FDA 209P', '=', 6),
  ('CC(C)C1C(=O)N2C(C(=O)O)=C(Sc3ccccn3)CC12 (stereo not shown)', 'Staphylococcus aureus FDA 209P', '=', 7),
  ('CCC1C(=O)N2C(C(=O)O)=C(Sc3ccncc3)CC12 (stereo not shown)', 'Staphylococcus aureus FDA 209P', '<', 7);

---

# protocol-notes: Test for concentration in blood (plasma of mouse, bioassay)
# Format: in vivo
# study-conditions: sc, subcutaneous, 2 mg/mouse, average on five mice, read-out: Half period (period that elapsed until the concentration was reduced to half)
observed-property: half-life (min)

INSERT INTO assay_data (compound, observed_property, units_symbol, endpoint_value) VALUES
  ('CCC1C(=O)N2C(C(=O)O)=C(Sc3ncccn3)CC12 (stereo not shown) [Table II r10 R1=H R2=[drawing] M=H]', 'half-life', 'min', 22),
  ('CC(=O)NCCSC1=C(C(=O)O)N2C(=O)C(C(C)C)C2C1 (stereo not shown) [PS-6.Na, reference compound]', 'half-life', 'min', 5),
  ('CCC1C(=O)N2C(C(=O)O)=C(Sc3ccncc3)CC12 (stereo not shown) [Table II r5 R1=H R2=[drawing] M=H]', 'half-life', 'min', 16),
  ('CC(O)[C@@H]1C(=O)N2C(C(=O)O)=C(Sc3ncccn3)C[C@H]12 (relative stereo) [Table II r13 R1=-OH R2=[drawing] M=H**]', 'half-life', 'min', 19),
  ('CCC1C(=O)N2C(C(=O)O)=C(Sc3ccccn3)CC12 (stereo not shown) [Table II r9 R1=H R2=[drawing] M=H]', 'half-life', 'min', 29),
  ('CCC1C(=O)N2C(C(=O)O)=C(Sc3ccccc3)CC12 (stereo not shown) [Table II r15 R1=H R2=[drawing] M=Na]', 'half-life', 'min', 25.2),
  ('CCC1C(=O)N2C(C(=O)O)=C(SCCNC(=O)Cc3ccccc3)CC12 (stereo not shown) [R1=H R2=-CH2CH2NHCOCH2-[drawing] M=Na]', 'half-life', 'min', 6),
  ('CC(O)[C@H]1C(=O)N2C(C(=O)O)=C(Sc3ncccn3)C[C@H]12 (relative stereo) [Table II r12 R1=-OH R2=[drawing] M=H*]', 'half-life', 'min', 25),
  ('CC(O)[C@@H]1C(=O)N2C(C(=O)O)=C(Sc3ccncc3)C[C@H]12 (relative stereo) [Table II r8 R1=-OH R2=[drawing] M=H**]', 'half-life', 'min', 13.5),
  ('CCC1C(=O)N2C(C(=O)O)=C(SCCNC(C)=O)CC12 (stereo not shown) [PS-5.Na, reference compound]', 'half-life', 'min', 7);

---

List of MIC tested on Alcaligenes faecalis A 1.
observed-property: MIC

INSERT INTO results (molecule, endpoint_value) VALUES
  ('CCC1C(=O)N2C(C(=O)O)=C(Sc3ccccn3)CC12 (stereo not shown)', '0.1 µg/mL'),
  ('CC(C)C1C(=O)N2C(C(=O)O)=C(Sc3ccncc3)CC12 (stereo not shown)', '0.013 µg/mL'),
  ('CCC1C(=O)N2C(C(=O)O)=C(Sc3ccncc3)CC12 (stereo not shown)', '< 0.007 µg/mL'),
  ('CC(C)C1C(=O)N2C(C(=O)O)=C(Sc3ccccn3)CC12 (stereo not shown)', '0.2 µg/mL');
